Origin of measurements: patent US12459932B2

# SYSTEM_TESTED: Recombinant human KIF18A (1-467 His-tagged) (Homo sapiens, UniProt Q8NI77)
# Construct: Recombinant human KIF18A (1-467 His-tagged) protein; His
# Sequence (Q8NI77 1-467): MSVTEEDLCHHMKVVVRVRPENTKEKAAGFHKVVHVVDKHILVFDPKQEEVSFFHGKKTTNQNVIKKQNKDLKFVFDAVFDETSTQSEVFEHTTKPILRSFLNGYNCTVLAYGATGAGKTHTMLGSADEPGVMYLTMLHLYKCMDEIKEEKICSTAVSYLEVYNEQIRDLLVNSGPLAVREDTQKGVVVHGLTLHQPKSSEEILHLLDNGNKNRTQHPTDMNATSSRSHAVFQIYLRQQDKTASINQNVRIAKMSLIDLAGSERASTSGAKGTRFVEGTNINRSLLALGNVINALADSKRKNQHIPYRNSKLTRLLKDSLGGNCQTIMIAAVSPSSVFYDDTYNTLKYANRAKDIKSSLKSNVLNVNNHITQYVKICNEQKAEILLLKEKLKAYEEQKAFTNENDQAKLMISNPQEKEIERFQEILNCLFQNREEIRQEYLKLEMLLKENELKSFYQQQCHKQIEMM
# Sequence (P02550 whole entry partner): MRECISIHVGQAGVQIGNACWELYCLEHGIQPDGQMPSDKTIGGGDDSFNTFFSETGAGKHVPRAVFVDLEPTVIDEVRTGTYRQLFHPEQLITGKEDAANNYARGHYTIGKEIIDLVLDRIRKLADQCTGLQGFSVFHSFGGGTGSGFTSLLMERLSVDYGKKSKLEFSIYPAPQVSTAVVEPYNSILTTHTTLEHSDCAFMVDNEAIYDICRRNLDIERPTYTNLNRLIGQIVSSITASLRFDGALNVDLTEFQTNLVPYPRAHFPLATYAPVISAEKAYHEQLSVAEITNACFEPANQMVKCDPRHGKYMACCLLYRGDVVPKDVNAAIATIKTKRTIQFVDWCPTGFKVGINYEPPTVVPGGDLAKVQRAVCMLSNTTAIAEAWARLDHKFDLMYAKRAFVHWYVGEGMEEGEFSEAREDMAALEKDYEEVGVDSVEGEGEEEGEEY
# Sequence (P02554 whole entry partner): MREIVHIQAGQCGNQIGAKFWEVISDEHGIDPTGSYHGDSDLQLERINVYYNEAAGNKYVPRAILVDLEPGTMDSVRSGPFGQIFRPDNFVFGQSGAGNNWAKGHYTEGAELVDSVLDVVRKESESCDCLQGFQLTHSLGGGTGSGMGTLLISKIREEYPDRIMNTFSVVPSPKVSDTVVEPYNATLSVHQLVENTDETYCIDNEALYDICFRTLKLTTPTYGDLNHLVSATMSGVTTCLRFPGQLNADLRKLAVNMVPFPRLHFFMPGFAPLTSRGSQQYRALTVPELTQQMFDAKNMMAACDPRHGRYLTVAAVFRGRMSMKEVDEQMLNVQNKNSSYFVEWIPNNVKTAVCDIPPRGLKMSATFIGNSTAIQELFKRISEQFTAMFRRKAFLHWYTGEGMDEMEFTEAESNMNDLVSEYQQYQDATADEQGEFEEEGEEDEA
# ASSAY: KIF18A Enzyme Assay: microtubule-stimulated ATPase activity (ADP-Glo)
# EXPERIMENTAL_CONTEXT: 30 nM KIF18A, 30 μg/mL pig microtubules, ATP 75 μM (Km), ADP-Glo luminescence
Recorded pIC50 by entry
# log scale: pIC50 equals minus log10 of the concentration in mol/L

**Query** Supply reported pIC50 belonging to this compound: C[C@H](CO)S(=O)(=O)Nc1ccc(C(=O)Nc2cccc(N3CC(F)C3)n2)c(N2CCC3(CC2)CC3)c1 (single isomer, unassigned)
**Result** 7.48

**Query** Supply reported pIC50 belonging to this compound: C[C@@H]1CN(c2cccc(NC(=O)c3ccc(S(=O)(=O)N4CC(C)(C#N)C4)cc3N3CCC4(CC3)CC4)n2)CCO1
**Result** 6.34

**Query** Supply reported pIC50 belonging to this compound: N=S(=O)(c1ccc(C(=O)Nc2cccc(OCCC(F)(F)F)n2)c(N2CCC3(CC2)CC3)c1)C1CC1 (single isomer, unassigned)
**Result** 7.66

**Query** Supply reported pIC50 belonging to this compound: Cc1cc(NC(=O)c2ccc(NS(=O)(=O)C3CCC3)cc2N2CCC3(CC2)CC3)nc(N2CCC(F)(F)CC2)c1
**Result** 6.96

**Query** Supply reported pIC50 belonging to this compound: CC1(S(=O)(=O)Nc2ccc(C(=O)Nc3cccc(N4CCC[C@@H](CO)C4)n3)c(N3CCC4(CC3)CC4)c2)CC1
**Result** 7.07

----------
Recorded pIC50 by entry
# SYSTEM_TESTED: Recombinant human KIF18A (1-467 His-tagged) (Homo sapiens, UniProt Q8NI77)
# Construct: Recombinant human KIF18A (1-467 His-tagged) protein; His
# ASSAY: KIF18A Enzyme Assay: microtubule-stimulated ATPase activity (ADP-Glo)
# EXPERIMENTAL_CONTEXT: 30 nM KIF18A, 30 μg/mL pig microtubules, ATP 75 μM (Km), ADP-Glo luminescence
# log scale: pIC50 equals minus log10 of the concentration in mol/L

{"COMPOUND": "Cc1cc(NC(=O)c2ccc(S(=O)(=O)NC(C)(C)C)cc2N2CCC3(CC2)CC3)nc(N2CCOCC2)c1", "RESULT_VALUE": 6.65}
{"COMPOUND": "CC1(NS(=O)(=O)c2ccc(C(=O)Nc3cccc(C(C)(C)O)n3)c(N3CCC4(CC3)CC4)c2)COC1", "RESULT_VALUE": 7.10}

**Query** Supply reported pIC50 belonging to this compound: C[C@@H]1CN(c2cccc(NC(=O)c3ccc(S(=O)(=O)C4COC4)cc3N3CCC4(CC3)CC4)n2)CCO1
**Result** 7.42

**Query** Supply reported pIC50 belonging to this compound: C[C@@H]1CN(c2cccc(NC(=O)c3ccc([S@@](=N)(=O)C(C)(C)C)cc3N3CCC4(CC3)CC4)n2)CCO1 (single isomer, unassigned)
**Result** 6.74

**Query** Supply reported pIC50 belonging to this compound: C[C@@H]1CN(c2cccc(NC(=O)c3ccc(CS(C)(=O)=O)cc3N3CCC4(CC3)CC4)n2)CCO1
**Result** 7.07

**Query** Supply reported pIC50 belonging to this compound: CCC(CO)NS(=O)(=O)c1ccc(C(=O)Nc2cccc(N3CCO[C@H](C)C3)n2)c(N2CCC3(CC2)CC3)c1 (stereo partly shown)
**Result** 6.92

**Query** Supply reported pIC50 belonging to this compound: Cc1cc(NC(=O)c2ccc(NS(=O)(=O)C(C)C)cc2N2CCC3(CC2)CC3)nc(N2CC(F)(F)C2)c1
**Result** 7.17

----------
# SYSTEM_TESTED: Recombinant human KIF18A (1-467 His-tagged) (Homo sapiens, UniProt Q8NI77)
# Construct: Recombinant human KIF18A (1-467 His-tagged) protein; His
# ASSAY: KIF18A Enzyme Assay: microtubule-stimulated ATPase activity (ADP-Glo)
# EXPERIMENTAL_CONTEXT: 30 nM KIF18A, 30 μg/mL pig microtubules, ATP 75 μM (Km), ADP-Glo luminescence
# Excerpt: KIF18A Enzyme Assay: Microtubule-stimulated ATPase activity assay is used to measure KIF18A enzyme activity after treatment with compound. Compounds were 2-fold serially diluted in DMSO (Sigma Inc) over 22-point concentration range. […] The assay measures ADP formed from the ATPase reaction. […] Read luminescence using EnVision microplate reader with ultra-luminescence module (Perkin Elmer Inc). […]
REPORTED_METRIC: IC50
A complete answer gives the number and then names the unit.

Solved cases (3 shown):
{"CHEMICAL_SMILES": "CC(C)(O)c1cccc(NC(=O)c2ccc(S(C)(=O)=O)cc2N2CCC3(CC2)CC3)n1", "IC50": "0.315 µM"}
{"CHEMICAL_SMILES": "N#Cc1ccc(NC(=O)c2ccc(NS(=O)(=O)CCO)cc2N2CCC3(CC2)CC3)nc1N1CCC(F)(F)CC1", "IC50": "0.025 µM"}
{"CHEMICAL_SMILES": "C[C@@H]1CN(c2cccc(NC(=O)c3ccc(NS(=O)(=O)C4COC4)cc3N3CCC4(CC3)CC4)n2)CCO1", "IC50": "0.063 µM"}

Field: next compound
**Query** Supply reported IC50 belonging to this compound: CNS(=O)(=O)c1ccc(C(=O)Nc2cccc(N3CCO[C@H](C)C3)n2)c(N2CCC3(CC2)CC3)c1
**Result** 0.044 µM

----------
# SYSTEM_TESTED: Recombinant human KIF18A (1-467 His-tagged) (Homo sapiens, UniProt Q8NI77)
# Construct: Recombinant human KIF18A (1-467 His-tagged) protein; His
# ASSAY: KIF18A Enzyme Assay: microtubule-stimulated ATPase activity (ADP-Glo)
# EXPERIMENTAL_CONTEXT: 30 nM KIF18A, 30 μg/mL pig microtubules, ATP 75 μM (Km), ADP-Glo luminescence
The label fulfilled is reserved for IC50 strictly under 0.05 µM; not fulfilled covers values equal to or above it.

{"COMPOUND": "CC(C)(C)S(=N)(=O)c1cccc(NC(=O)c2ccc(NS(=O)(=O)CCO)cc2N2CCC3(CC2)CC3)n1 (stereo not shown) [Example 26]", "SYSTEM_TESTED": "Recombinant human KIF18A (1-467 His-tagged) (Homo sapiens, UniProt Q8NI77)", "LABEL_VALUE": "not fulfilled"}
{"COMPOUND": "Cc1ccc(NC(=O)c2ccc(NS(=O)(=O)CCO)cc2N2CCC3(CC2)CC3)nc1N1CCOCC1 [Example 18]", "SYSTEM_TESTED": "Recombinant human KIF18A (1-467 His-tagged) (Homo sapiens, UniProt Q8NI77)", "LABEL_VALUE": "fulfilled"}
{"COMPOUND": "Cc1cc(NC(=O)c2ccc(NS(=O)(=O)CF)cc2N2CCC3(CC2)CC3)nc(N2CCO[C@H](C)C2)c1 [Example 7-36]", "SYSTEM_TESTED": "Recombinant human KIF18A (1-467 His-tagged) (Homo sapiens, UniProt Q8NI77)", "LABEL_VALUE": "not fulfilled"}
{"COMPOUND": "Cc1cc(NC(=O)c2ccc(NS(=O)(=O)CCO)cc2N2CCC3(CC2)CC3)nc(N2CC(F)(F)C2)c1 [Example 11]", "SYSTEM_TESTED": "Recombinant human KIF18A (1-467 His-tagged) (Homo sapiens, UniProt Q8NI77)", "LABEL_VALUE": "fulfilled"}

Continue with the compound presented below.
**Query** Field: below-cutoff. Rule: recorded IC50 strictly less than 0.05 µM. Subject: C[C@H]1CN(c2cccc(NC(=O)c3ccc(NS(=O)(=O)[C@@H](C)CO)cc3N3CCC4(CC3)CC4)n2)CCO1 (single isomer, unassigned) [Example 9-18]
**Result** fulfilled

----------
# SYSTEM_TESTED: Recombinant human KIF18A (1-467 His-tagged) (Homo sapiens)
# Construct: Recombinant human KIF18A (1-467 His-tagged) protein; His
# ASSAY: KIF18A Enzyme Assay: microtubule-stimulated ATPase activity (ADP-Glo)
# EXPERIMENTAL_CONTEXT: 30 nM KIF18A, 30 μg/mL pig microtubules, ATP 75 μM (Km), ADP-Glo luminescence
Recorded IC50 by entry
Express the result in nM but write the number alone.

{"COMPOUND": "Cc1cc(NC(=O)c2ccc(NS(=O)(=O)C3CCC3)cc2N2CCC3(CC2)CC3)nc(N2CC(F)(F)C2)c1 [Example 7-30]", "UNIT_STRING": "nM", "IC50": 78}
{"COMPOUND": "CC1(S(=O)(=O)Nc2ccc(C(=O)Nc3cccc(N4CCC[C@@](C)(O)C4)n3)c(N3CCC4(CC3)CC4)c2)CC1 [Example 3-10]", "UNIT_STRING": "nM", "IC50": 143}
{"COMPOUND": "Cc1cc(NC(=O)c2ccc(NS(=O)(=O)C3(CO)CC3)cc2N2CCC3(CC2)CC3)nc(N2CC(F)(F)C2)c1 [Example 10-2]", "UNIT_STRING": "nM", "IC50": 76}

**Query** Supply reported IC50 belonging to this compound: C[C@@H]1CN(c2cccc(NC(=O)c3ccc(NS(=O)(=O)C(F)(F)F)cc3N3CCC4(CC3)CC4)n2)CCO1 [Example 7-41]
**Result** 207

**Query** Supply reported IC50 belonging to this compound: CC1(S(=O)(=O)Nc2ccc(C(=O)Nc3cccc(N4CCC(F)(F)CC4)n3)c(N3CCC4(CC3)CC4)c2)CC1 [Example 4-9]
**Result** 46

**Query** Supply reported IC50 belonging to this compound: O=C(Nc1cccc(OCCC(F)(F)F)n1)c1ccc(NS(=O)(=O)CCO)cc1N1CCC2(CC1)CC2 [Example 5]
**Result** 25

**Query** Supply reported IC50 belonging to this compound: C[C@@H]1CN(c2cccc(NC(=O)c3ccc(S(=O)(=O)CC(C)(C)O)cc3N3CCC4(CC3)CC4)n2)CCO1 [Example 2-6]
**Result** 110
